Parameter: MRT last. Scope: all listed entries.
PROTOCOL SUMMARY: In vivo pharmacokinetics in SD rats
Design: species or system Sprague–Dawley (SD) rats
STUDY CONDITIONS: Sprague-Dawley, rat, plasma, iv, 2 mg/kg
Lab book: enter the figure in h, no units written.

Cc1cc(/C=C/C#N)cc(C)c1Oc1nc(NC2CCN(Cc3ccc(S(N)(=O)=O)cc3)CC2)nc2c1SCCC2 [compound 23h]
1.56

The record that follows has no MRT last shown yet.
Lookup: # MRT last lookup, item Cc1cc(C#N)cc(C)c1Oc1nc(Nc2ccc(C#N)cc2)nc(N)c1Br [ETR, etravirine, reference compound]
Found: 0.93
